# TESTED_SYSTEM: HLA DRB1*1201 (human)
# TEST_DETAILS: competition with 125I probe peptide, purified HLA
I'd be grateful if you could share measured pIC50 for these entries.
# reply with the number alone; pIC50 is -log10 of concentration in mol/L

Can you look up the measured pIC50 of TGRCIACWRRPRTET (modifications not checked) [HPV31.E6.132 HTL epitope] for me?
5.31

Also QRFHNIRGRWTGRCM (modifications not checked) [HPV16.E6.130 HTL epitope] ?
4.84

Also, FHSIAGQYRGQCNTC (modifications not checked) [HPV45.E6.127 HTL epitope] please.
4.99

Reference source: patent US20100272750A1
